Tested on: K562 CRISPRi cells
Test: Constant region variant library pooled growth screen, K562
Format: cell-based, human
Conditions: sgRNA constant region variants; activity relative to the original, un-modified constant region cr995
Collected Mean relative activity values appear next to each entry.
Please give only the number in your answer, with no unit.

cr661 (nucleic acid, listed as DNA, chemistry not fully specified) guide: GTTTAAGAGCTAAGCTGGAAACAGCATAACAAGTTTAAATAAGGCTAGTCCCTTATCAACTTGAATAAGTGGCACCGAGTCGGTGCT = −0.01151
cr958 (nucleic acid, listed as DNA, chemistry not fully specified) guide: GTTTAAGAGCTAAGCTGGAAACAGCATAGCAACTTTAAATAAGGCTAGTCCGTTATCAACTTGAAAAAGTGGCACTGAGTCAGTGCT = 0.0249
cr711 (nucleic acid, listed as DNA, chemistry not fully specified) guide: GTTTAAGAGCTAAGCTGGAAACAGCATAGCAAGGTTAAATAAGGCTAGTCCGTTATCAACTTGAAAAAGTGCCACCGAGTCGGTGGT = 0.0267

Could you now look at the following molecule, please?
Give its Mean relative activity value. Item: cr434 (nucleic acid, listed as DNA, chemistry not fully specified) guide: GTTTAAGAGCTAAGCTGGAAACAGCATAGCAAGTTTAAATAAGGCTAGTCCGTTATCAACTTCATAAAGTGGCACCGAGTCGGTGCT
1.027
